# EXPERIMENTAL_TARGET: FGF2 (Homo sapiens, UniProt P09038 P09038:135-288)
# Sequence (P09038 135-288, one chain of several): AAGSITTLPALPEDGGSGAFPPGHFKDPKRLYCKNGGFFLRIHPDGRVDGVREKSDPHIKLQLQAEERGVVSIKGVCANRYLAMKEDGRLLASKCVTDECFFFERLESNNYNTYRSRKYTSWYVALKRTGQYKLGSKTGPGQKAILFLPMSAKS
# EXPERIMENT: inhibition; SPR inhibition of FGF2-FGFR1alpha(IIIc); each 0.1 uM
# TEST_PARAMETERS: tags: Peprotech
In this section we review reported activity values for a set of binders.
Give a bare numeral; the unit % is implied.

Use these answered entries as a reference point.
binder="GGGAUACUAGGGCAUUAAUGUUACCAGUGUAGUCCC (ssRNA, 2'-F at U8,U16,U21,U28,U30; 2'-OH at G12,G27,G29; all others 2'-OMe; PS between G27 and U28) [aptamer ID 3(31)]" assay_value=91
binder="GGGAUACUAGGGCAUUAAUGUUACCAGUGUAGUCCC (ssRNA, 2'-F at U8,U16,U21,U28,U30; G12 DNA (2'-H); 2'-OH at G27,G29; all others 2'-OMe) [aptamer ID 3(23)]" assay_value=91
binder="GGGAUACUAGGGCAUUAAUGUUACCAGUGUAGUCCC (ssRNA, 2'-F at U8,G12,U16,U21,U28,U30; 2'-OH at G27,G29; all others 2'-OMe) [aptamer ID 3(25)]" assay_value=90
binder="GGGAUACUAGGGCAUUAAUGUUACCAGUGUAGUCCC (ssRNA, all C and U 2'-F; 2'-OMe at G10; other purines 2'-OH) [aptamer ID 3(4)]" assay_value=89
binder="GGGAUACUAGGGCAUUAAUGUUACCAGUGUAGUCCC (ssRNA, 2'-F at U8,U16,U21,U28,U30; G27 DNA (2'-H); 2'-OH at G12,G29; all others 2'-OMe) [aptamer ID 3(24)]" assay_value=90

[Q] Value lookup for activity; key = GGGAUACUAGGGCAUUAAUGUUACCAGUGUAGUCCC (ssRNA, 2'-OMe at G1,G2,G3,A4,A9,G10,G11,A14,A17,A18,G20,A23,A26,U33,C34,C35,C36; other C and U 2'-F; other purines 2'-OH; 3' idT) [aptamer ID 3(12)]
[A] 89

[Q] Could you do the same for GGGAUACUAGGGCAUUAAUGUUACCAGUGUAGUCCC (ssRNA, 2'-F at U8,U16,U21,U28,U30; 2'-OH at G12,G27,G29; all others 2'-OMe) [aptamer ID 3(18)] , please?
[A] 89
